Data origin: patent US11214803B2

I'd appreciate it if you could supply YAP1 (% UTC) values for the items below.
# System: Yap1 mRNA
# ASSAY SUMMARY: Antisense inhibition of human Yap1 in SNU-449 cells by modified oligonucleotides, single dose (Example 5, RTS36584)
# Format: cell-based
# CONDITION PARAMETERS: Table 40 (separate experiment); SNU-449 cells, 10,000 cells per well, free uptake, 2,000 nM oligonucleotide, approx. 48 hours; RTS36584; normalized to RIBOGREEN; Yap1 mRNA relative to untreated control
Strand notation (5' to 3'): a small letter for the sugar, then the base; units joined by * are phosphorothioate-linked, units joined directly phosphodiester-linked; [ ] holds rarer units or linkages, { } end groups; capitals alone tell only the bases. e = 2'-O-(2-methoxyethyl) (MOE); k = constrained ethyl (cEt); [5mC] = 5-methylcytosine; d = 2'-deoxy (DNA)
Give bare numbers, in % UTC.

Use the examples below as a reference point.
Qu. Consider the substance 1198781 (antisense kG*eT*kA*dA*dT*dA*dT*dT*dG*d[5mC]*dA*dA*eT*e[5mC]*kT*kG) [Compound 1198781] and give its recorded YAP1 (% UTC).
Ans. 25

Qu. Consider the substance 1198802 (antisense kA*eG*kA*d[5mC]*dT*dA*dA*dG*dT*dA*dA*dG*eG*eT*kT*kT) [Compound 1198802] and give its recorded YAP1 (% UTC).
Ans. 83

# context switch: different substance, same YAP1 (% UTC)
Qu. Consider the substance 1198763 (kG*eA*kT*dT*dT*dA*dG*dG*dA*dT*dG*d[5mC]*eA*eT*kG*kG; antisense) [Compound 1198763] and give its recorded YAP1 (% UTC).
Ans. 26

###

# Tested on: Yap1 mRNA
# ASSAY SUMMARY: Dose-dependent inhibition of human Yap1 in A-431 cells (Example 8, 10,000 cells per well, RTS4814)
# Type: cell-based
# CONDITION PARAMETERS: 31.3 nM; A-431 cells, 10,000 cells per well, free uptake, approximately 48 hours, RTS4814
Strand notation (5' to 3'): a small letter for the sugar, then the base; units joined by * are phosphorothioate-linked, units joined directly phosphodiester-linked; [ ] holds rarer units or linkages, { } end groups; capitals alone tell only the bases. k = constrained ethyl (cEt); [5mC] = 5-methylcytosine; d = 2'-deoxy (DNA)
Param threshold (60 % UTC) applies to Yap1 mRNA, % UTC; output 1 when value >= threshold, 0 when value < threshold.

Below are worked cases with known answers.
Qu. Quick check, Yap1 mRNA, % UTC >= 60 % UTC? 1076077 (kG*kG*kA*dT*dT*dA*dA*dA*dG*dT*dT*dT*dT*k[5mC]*kA*k[5mC]; antisense) [compound 1076077]
Ans. 0

Qu. Quick check, Yap1 mRNA, % UTC >= 60 % UTC? 1076524 (kA*kA*kT*dT*dT*dA*dT*dA*dT*d[5mC]*dA*dG*dG*kT*k[5mC]*kA; antisense) [compound 1076524]
Ans. 1

Qu. Quick check, Yap1 mRNA, % UTC >= 60 % UTC? 1074737 (kT*kT*k[5mC]*dA*dG*dG*dT*d[5mC]*dA*dG*dT*dA*d[5mC]*kA*kG*kA; antisense) [compound 1074737]
Ans. 0

Qu. Quick check, Yap1 mRNA, % UTC >= 60 % UTC? 1076367 (antisense k[5mC]*kT*kA*dT*dT*dT*dA*d[5mC]*dA*dT*dG*dA*dG*kA*kG*kG) [compound 1076367]
Ans. 0

Qu. Quick check, Yap1 mRNA, % UTC >= 60 % UTC? 1075249 (kA*kT*kT*dA*d[5mC]*dG*dA*dT*dT*dA*dG*dA*dT*k[5mC]*kA*kG; antisense) [compound 1075249]
Ans. 1

Qu. Quick check, Yap1 mRNA, % UTC >= 60 % UTC? 1074675 (antisense kA*kA*kA*dT*dT*dA*dT*dA*dG*dG*d[5mC]*dA*d[5mC]*kT*k[5mC]*k[5mC]) [compound 1074675]
Ans. 0

Further cases:
Qu. Quick check, Yap1 mRNA, % UTC >= 60 % UTC? 1074445 (kT*kG*kA*dT*dA*dG*d[5mC]*dA*d[5mC]*dT*dA*dG*dG*kA*kG*kG; antisense) [compound 1074445]
Ans. 0

Qu. Quick check, Yap1 mRNA, % UTC >= 60 % UTC? 1076288 (k[5mC]*kT*kT*dA*dT*dT*dT*dA*dG*d[5mC]*dA*dT*dA*kG*kT*kG; antisense) [compound 1076288]
Ans. 0

Qu. Quick check, Yap1 mRNA, % UTC >= 60 % UTC? 1074566 (DNA CACTGAATTCCAATCG; 3-10-3 cEt gapmer, chemistry not fully specified) [compound 1074566]
Ans. 0

Qu. Quick check, Yap1 mRNA, % UTC >= 60 % UTC? 1074817 (k[5mC]*kT*kG*dA*dA*dT*dA*dT*dT*dG*d[5mC]*d[5mC]*dA*k[5mC]*k[5mC]*k[5mC]; antisense) [compound 1074817]
Ans. 0

Qu. Quick check, Yap1 mRNA, % UTC >= 60 % UTC? 1076330 (antisense kG*kA*kA*dT*dT*dA*dT*dA*d[5mC]*dT*dG*dG*d[5mC]*kT*kA*k[5mC]) [compound 1076330]
Ans. 0

Qu. Quick check, Yap1 mRNA, % UTC >= 60 % UTC? 1075785 (k[5mC]*kA*kT*dT*dT*dT*dA*dT*dA*dG*dG*dG*d[5mC]*k[5mC]*kA*kT; antisense) [compound 1075785]
Ans. 0
